Settings: in n-hexanol, 288.15 K
VALUE_TYPE: solubility (mole fraction)

| MOL_SMILES | ENDPOINT_RESULT |
| --- | --- |
| C=CC(=O)NC(C)(C)CC(C)=O | 0.286 |

* * *

Conditions: in 2-butanone, 303.25 K

| MOL_SMILES | solubility (mole fraction) |
| --- | --- |
| C=CC(=O)NC(C)(C)CC(C)=O | 0.551 |

* * *

Details: in n-pentanol, 313.65 K

| MOL_SMILES | solubility (mole fraction) |
| --- | --- |
| C=CC(=O)NC(C)(C)CC(C)=O | 0.66 |
